# Assay procedure: resazurin metabolic signal in A549 cells – cell-based, resazurin fluorescence, 24 h, PK04 Diversity Set, profiling panel (AID 1171); further: test concentration not given here
# Condition notes: A549 viability, higher = more signal, called active from +8 up or from −8 down
Endpoint name: z-score
Keep the answer to the number alone.

// solved cases for z-score follow
INSERT INTO measurements (compound, measured_value) VALUES
  ('C=CCN1Cc2ccccc2[C@@H]2OC(c3ccc(OCCCO)cc3)=N[C@]2(CCS(=O)(=O)c2ccccc2)C1=O', 0.315),
  ('COC(=O)[C@@]1(Cc2ccccc2)[C@H]2c3cc(C(=O)N4CCCC4)n(Cc4ccc(O)c(OC)c4)c3C[C@H]2CN1C(=O)c1ccccc1', -1.5),
  ('O=C(NC1CC1)[C@@H]1c2ccccc2C(=O)N(C2Cc3ccccc3C2)[C@H]1c1ccc(CO)cc1', 0.888),
  ('COc1cc2c(cc1O)C(c1cccs1)N(Cc1ccc([N+](=O)[O-])o1)CC2 (stereo not drawn)', -1.63);

Assign z-score to the following record: `CCOC(=O)C1=CC[C@H]2C(=O)N(c3ccccc3)C(=O)[C@@H]12`
0.396

Assign z-score to the following record: O=C1C2C=CC(C(O)c3c(F)cccc3Cl)N(Nc3ccccc3F)C2C(=O)N1c1ccccc1 (stereo not drawn)
-0.103

Assign z-score to the following record: `COC(=O)[C@@]1(Cc2ccc(F)cc2)[C@H]2c3cc(C(=O)N(C)C)n(Cc4ccc(C)o4)c3C[C@H]2CN1C(=O)c1ccccc1`
0.501

Assign z-score to the following record: `CCCCC(=C=CC[C@@H](O)c1ccc(CO)o1)CCO`
1.28

----------
# Assay procedure: blockers of DNA damage checkpoint Chk1 activation – imaging, HeLa, hydroxyurea, phospho-Chk1 nuclear intensity, primary screen (AID 1187); further: test concentration not given here
# Condition notes: hydroxyurea-induced phospho-Chk1 immunofluorescence imaging, higher = more signal
Endpoint name: z-score
Keep the answer to the number alone.

// solved cases for z-score follow
INSERT INTO measurements (molecule, measured_value) VALUES
  ('Cc1ccc(S[C@]2(C(=O)O)CC(=O)N(C(C)C)[C@@H]2c2ccc(CO)cc2)cc1', -0.558),
  ('O=C1O[C@@H](c2ccccc2)[C@@H](c2ccccc2)N2[C@@H](c3ccc(OCCO)cc3)[C@]3(C(=O)Nc4ccc(C#CC5=CCCCC5)cc43)[C@@H](C(=O)N3CCCCCCC3)[C@H]12', 0.474),
  ('COC(=O)c1c2oc(c1C(=O)OC)C(=O)N[C@@H](C(C)C)Cn1cc(nn1)C1(CCCCC1)NC(=O)N[C@H](CO)CC2', 0.284),
  ('C=CC[C@@]1(C(=O)N2CCCCC2)N=C(c2ccc(OCCCO)cc2)O[C@@H]1c1ccccc1N=[N+]=[N-]', -0.667),
  ('COCCOC(=O)N1C(=O)[C@@]2(c3cc(C#CCCO)ccc31)[C@H](c1ccc(OCCO)cc1)N1[C@H](c3ccccc3)[C@H](c3ccccc3)OC(=O)[C@H]1[C@@H]2C(N)=O', 0.51);

Assign z-score to the following record: `Cc1ccc(S[C@]2(C(=O)NCC(C)C)CC(=O)N(Cc3cc(C(F)(F)F)cc(C(F)(F)F)c3)[C@@H]2c2ccc(CO)cc2)cc1`
-0.284

Assign z-score to the following record: CCCCC(O)C1C=CC2C(=O)N(C)C(=O)C2N1N1CCCCC1 (stereo not given)
0.154

Assign z-score to the following record: CN1C(=O)C2C=CC(C(O)c3ccc(F)cc3)N(N(c3ccccc3)c3ccccc3)C2C1=O (stereo not given)
0.568

Assign z-score to the following record: CC(CO)N1C(=O)[C@@H]2C3C(=O)OCCC/C=C\[C@H]3OC23C=CCN(CCN2CCOCC2)C(=O)[C@@H]13 (stereo not given in full)
-1.88

Assign z-score to the following record: O=C1OCC=C[C@H]2OC34C=CCN(CCN5CCOCC5)C(=O)[C@H]3N(CCO)C(=O)[C@@H]4[C@@H]12 (stereo not given in full)
-0.371

----------
# Assay procedure: calcein-AM signal in unstimulated myeloma cells – cell-based, calcein-AM fluorescence, 48 h, PK04 Diversity Set, profiling panel (AID 1166);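 further: cells grown under basal conditions without added stimulus; test concentration not given here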
# Condition notes: RPMI8226 myeloma viability, higher = more signal
Mark fulfilled only when z-score stays strictly below -0.4. Values equal to the cut-off are not fulfilled.

Look over these answered cases.
INSERT INTO measurements (compound, class_label) VALUES
  ('O=C1[C@H]2C=C(I)[C@H](C[C@@H]2OCCCCO)[C@@]12CO2', 'fulfilled'),
  ('CN1CCC(CCCO)=CC1c1cccs1 (stereo not drawn)', 'not fulfilled'),
  ('C=CCC(OC(C)=O)[C@@H]1[C@@H](N(Cc2ccc(-c3cccc(C(F)(F)F)c3)o2)C(=O)c2cccc3ccccc23)c2cc(OCCCO)ccc2N1C(=O)Cc1ccc2ccccc2c1 (stereo partly drawn)', 'fulfilled'),
  ('COC(=O)[C@@]1(Cc2ccc(F)cc2)[C@H]2c3cc(C(=O)N(C)C)n(Cc4cc(C)n(C)n4)c3C[C@H]2CN1C(=O)c1ccccc1', 'fulfilled'),
  ('C=C(CCCC)/C(=C/C[C@@H](OC(C)=O)c1ccccc1OCCO)c1cc(C(=O)OC)ccc1OC', 'not fulfilled'),
  ('O=C1OCC=C[C@H]2OC34C=CCN(CCN5CCOCC5)C(=O)[C@H]3N(CCO)C(=O)[C@@H]4[C@@H]12 (stereo partly drawn)', 'not fulfilled'),
  ('C=CCN1Cc2ccccc2[C@@H]2OC(c3ccc(OCCCO)cc3)=N[C@]2(CCS(=O)(=O)c2ccccc2)C1=O', 'fulfilled');

Shifting focus to the compound that follows.
Please state whether z-score is below -0.4 for O=C1OCC=C[C@H]2OC34C=CCN(Cn5nnc6ccccc65)C(=O)[C@H]3N(CCCCCO)C(=O)[C@@H]4[C@@H]12 (stereo partly drawn)
not fulfilled

----------
Recorded composite z-score for the following compounds
# Test system: Human papillomavirus type 1a protein E7 (residues 44-93)
# Assay procedure: small molecules binding HPV E7 44-93 – biochemical, small-molecule microarray, residues 44-93, 635 nm fluorescence, primary screen (AID 1108);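 further: E7 fragment applied at 1 µg/mL in TBST for 1 h at 4 C; score combines spot fluorescence with its signal to noise ratio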
# Condition notes: fluorescence 635 nm, higher = more signal
Keep the answer to the number alone.

INSERT INTO assay_data (compound, endpoint_name, measured_value) VALUES
  ('Cc1ccc(S[C@]2(C(=O)O)CC(=O)N(Cc3ccccc3C(F)(F)F)[C@@H]2c2ccc(CO)cc2I)cc1', 'composite z-score', 0.4);

Assign composite z-score to the following record: `C=C(CCCC)/C(=C/C[C@@H](OC(C)=O)c1cccc(OCCO)c1)c1cnc2ccccc2c1`
0.571

Assign composite z-score to the following record: CC(C)N1CC=CC23O[C@@H]4C=CCOC(=O)[C@@H]4[C@H]2C(=O)N(CCCCCO)[C@@H]3C1=O (stereo not given in full)
-0.608

Assign composite z-score to the following record: `C=C(/C(=C/C[C@H](OC(C)=O)c1ccc(OCCO)cc1)c1cc(C(=O)OC)ccc1OC)C(C)C`
1.16

----------
# Target under test: Homeobox protein Hox-A13 (Mus musculus)
# Assay procedure: disruptors of Hoxa13 oligonucleotide interaction – biochemical, fluorescence polarization, labeled oligonucleotide, primary screen (AID 1185)
# Condition notes: Hoxa13:DNA binding, 15 min, higher = more signal, called active from +8 up or from −8 down
Endpoint name: z-score
Keep the answer to the number alone.

INSERT INTO results (compound, measured_value) VALUES
  ('CN(C)CCCCCCNC(=O)[C@@H]1C[C@@H]2C(=O)N[C@@H](CCCC[N+](C)(C)C)C(=O)N2[C@@H]1c1ccc(O)cc1', -1.64),
  ('COC(=O)C(CC#Cc1ccc2c(c1)[C@]1(C(=O)N2)[C@H](c2ccccc2OCCO)N2[C@H](c3ccccc3)[C@H](c3ccccc3)OC(=O)[C@H]2[C@@H]1C(N)=O)C(=O)OC', -2.21),
  ('OB1C=CCC(CCc2ccccc2)O1 (centres undefined)', -2.13);

As a next step, examine the compound that follows.
Give z-score only, for `O=C(CS)NCCCCCNC(=O)[C@@H]1C[C@@H]2C(=O)NCC(=O)N2[C@@H]1c1cccc(OCCO)c1` , using Homeobox protein Hox-A13 (Mus musculus) data.
-3.25

----------
# Target under test: Carbonic anhydrase 2 (Homo sapiens) (UniProt P00918)
# Assay procedure: compounds binding carbonic anhydrase 2 – biochemical, small-molecule microarray, Alexa647-labelled CAII, profiling panel (AID 1122)
# Condition notes: CAII-A647 binding fluorescence, higher = more signal
Binary classification by composite z-score, with 0.6 as an inclusive lower bound for satisfied; all other cases are not satisfied.

Look over these answered cases.
INSERT INTO results (compound, target_under_test, class_label) VALUES
  ('COC(=O)c1c2oc(c1C(=O)OC)C(=O)NC1(CCCCC1)c1cn(nn1)C[C@H](Cc1ccccc1)NC(=O)N[C@H](CO)CC2', 'Carbonic anhydrase 2 (Homo sapiens) (UniProt P00918)', 'not satisfied'),
  ('NCCCCCNC(=O)[C@H]1C[C@H]2C(=O)N3CCC[C@H]3C(=O)N2[C@H]1c1ccc(O)cc1', 'Carbonic anhydrase 2 (Homo sapiens) (UniProt P00918)', 'not satisfied'),
  ('C#CCOc1ccc(C[C@@H](C(=O)OC)N(CC#C)[C@@H](/C=C/C2CC2)[C@H](O)Cc2ccccc2)cc1', 'Carbonic anhydrase 2 (Homo sapiens) (UniProt P00918)', 'not satisfied'),
  ('N#Cc1ccc(C(O)C2C=CC3C(=O)N(c4ccccc4)C(=O)C3N2Nc2ccccc2F)cc1 (stereo not given)', 'Carbonic anhydrase 2 (Homo sapiens) (UniProt P00918)', 'satisfied'),
  ('COC(=O)[C@@]1(Cc2ccc(OC)cc2)[C@H]2c3cc(C(=O)N4CCCC4)n(CCCNc4ncc(C(F)(F)F)cc4Cl)c3C[C@H]2CN1C(=O)c1ccccc1', 'Carbonic anhydrase 2 (Homo sapiens) (UniProt P00918)', 'not satisfied');

Could you please find out whether `O=C(NCCN1CCOCC1)[C@@H]1c2ccccc2C(=O)N(Cc2cc(C(F)(F)F)cc(C(F)(F)F)c2)[C@H]1c1ccc(CO)cc1` has composite z-score that meets 0.6 or exceeds it?
satisfied

Could you please find out whether CC(c1ccccc1)C(O)C1C=CC2C(=O)N(C)C(=O)C2N1NC(=O)OC(C)(C)C (stereo not given) has composite z-score that meets 0.6 or exceeds it?
satisfied

Could you please find out whether `COc1ccc([Si](C)(C)[C@@H]2[C@@H](CCn3cc(CCO)nn3)O[C@]3(C(=O)N(Cc4cccc(N5C(=O)c6cccc7cccc5c67)c4)c4ccccc43)[C@H]2C)cc1` has composite z-score that meets 0.6 or exceeds it?
not satisfied

Could you please find out whether `CC#CC(=O)Oc1ccc(Br)cc1C=CC(=O)OCC` has composite z-score that meets 0.6 or exceeds it?
not satisfied

Could you please find out whether `COc1cc2c(cc1O)C=[N+](Cc1cc3c(cc1Br)OCO3)CC2` has composite z-score that meets 0.6 or exceeds it?
satisfied

Could you please find out whether `O=C(CS)NCCCCCNC(=O)[C@H]1C[C@H]2C(=O)NCC(=O)N2[C@H]1c1ccc(O)cc1` has composite z-score that meets 0.6 or exceeds it?
not satisfied

Could you please find out whether CC1CC/C=C\[C@H]2OC34C=CCN(c5ccc6ccccc6c5)C(=O)[C@H]3N(CCO)C(=O)[C@@H]4C2C(=O)O1 (stereo not given in full) has composite z-score that meets 0.6 or exceeds it?
satisfied

Could you please find out whether `O=C(O)[C@H](Cc1ccccc1)n1cc(-c2ccccc2)nn1` has composite z-score that meets 0.6 or exceeds it?
not satisfied

Could you please find out whether `COCCOC(=O)N1C(=O)[C@@]2(c3cc(C#Cc4ccc(OC)cc4)ccc31)[C@H](c1ccc(O)cc1)N1[C@H](c3ccccc3)[C@H](c3ccccc3)OC(=O)[C@H]1[C@@H]2C(=O)Nc1nc2ccccc2s1` has composite z-score that meets 0.6 or exceeds it?
not satisfied

Could you please find out whether C=CC1c2cc(O)c(OC)cc2CCN1Cc1cccc(OC(F)(F)F)c1 (stereo not given) has composite z-score that meets 0.6 or exceeds it?
satisfied

Could you please find out whether `COc1ccc([Si](C)(C)[C@H]2[C@H](CC(=O)N3CCC[C@H]3CO)O[C@@]3(C(=O)N(Cc4cccc(N5CCOC5=O)c4)c4ccccc43)[C@@H]2C)cc1` has composite z-score that meets 0.6 or exceeds it?
not satisfied

Could you please find out whether COc1cc2c(cc1O)C(c1cccs1)N(Cc1ccc([N+](=O)[O-])o1)CC2 (stereo not given) has composite z-score that meets 0.6 or exceeds it?
satisfied

Could you please find out whether `C=CC[C@]1(C(=O)NCc2ccccc2)N=C(c2ccc(OCCCO)cc2)O[C@H]1c1ccccc1CN=[N+]=[N-]` has composite z-score that meets 0.6 or exceeds it?
not satisfied

Could you please find out whether COc1ccc(C(O)C2C=CC3C(=O)N(C)C(=O)C3N2N(c2ccccc2)c2ccccc2)c2ccccc12 (stereo not given) has composite z-score that meets 0.6 or exceeds it?
satisfied

Could you please find out whether `Cc1ccc(S[C@]2(C(=O)O)CC(=O)N(C(C)C)[C@@H]2c2ccc(CO)cc2)cc1` has composite z-score that meets 0.6 or exceeds it?
satisfied
